Provenance of the data: the RNAGym collection of RNA variant scans (doi:10.7554/elife.80360)

B1: HDV Ribozyme (parent)
chain: GGCCGGCAUGGUCCCAGCCUCCUCGCUGGCGCCGGCUGGGCAACAUUCCGAGGGGACCGUCCCCUCGGUAAUGGCGAAUGGGACCCA

- Variants of: B1
- protocol-text: self-cleavage, relative activity (ratio to wild type); higher = more cleavage; co-transcriptional
measured-parameter: self-cleavage
Answer field: number only, no words.

Example entries begin here.
Could you tell me which self-cleavage is on file for C64G G67A ?
0.356

Query G38C G50A next
0.188

Query U37A G50A next
0.0361

Query C3G G52U next
0.691

Query G6A C41G next
0.107

---
Could you tell me which self-cleavage is on file for A8G G10A ?
0.369

Query G74U C75A next
0.228

Query C30A U47A next
0.486

Query G5A G6A next
0

Query A42G G74A next
0.0396

Query G17A U37C next
1.1

Query U37C C57G next
1.1

Query A43G G59A next
0.811
